- TARGET_OR_TEST_SYSTEM: CYP2C8 (Homo sapiens)
- Sequence (P10632 1-490): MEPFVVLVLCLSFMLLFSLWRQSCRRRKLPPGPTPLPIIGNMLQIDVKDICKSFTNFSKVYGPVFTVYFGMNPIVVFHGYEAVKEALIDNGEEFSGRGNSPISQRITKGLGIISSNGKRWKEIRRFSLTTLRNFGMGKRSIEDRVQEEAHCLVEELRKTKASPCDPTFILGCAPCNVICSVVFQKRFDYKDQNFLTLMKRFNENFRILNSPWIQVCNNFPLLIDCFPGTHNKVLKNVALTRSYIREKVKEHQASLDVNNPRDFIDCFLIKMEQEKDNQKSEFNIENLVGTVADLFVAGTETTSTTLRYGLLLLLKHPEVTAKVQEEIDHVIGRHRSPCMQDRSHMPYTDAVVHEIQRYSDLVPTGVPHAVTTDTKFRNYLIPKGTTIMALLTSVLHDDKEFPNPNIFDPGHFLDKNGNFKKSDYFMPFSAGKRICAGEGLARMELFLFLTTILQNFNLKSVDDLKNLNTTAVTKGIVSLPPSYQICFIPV
- PROTOCOL: Metabolic stability in recombinant human CYP2C8 metabolic enzyme
- Format: in vitro ADME
- CONDITION_NOTES: CYP subtype 2C8, test concentration 2 (M), 25 minutes
- Description: 1) Na2HPO4, KH2PO4, and pure water were used to prepare phosphate buffer (100 mM, pH 7.4); 2) Test compound and reference compound were dissolved in acetonitrile to obtain a working solution (200 M); 3) NADPH solution (10 mM) was prepared with NADPH and phosphate buffer (100 mM, pH 7.4); 4) The stock solution of recombinant CYP2C8 enzyme was diluted to […] with phosphate buffer (100 mM, pH 7.4); […]
RECORDED_ENDPOINT: Percentage of residual substances after 25 minutes (%)

Q) Form entry - test system: CYP2C8 (Homo sapiens); read-out: Percentage of residual substances after 25 minutes; compound: "[2H]c1c(Oc2c(Cl)cc(-n3nc(C#N)c(=O)[nH]c3=O)cc2Cl)n[nH]c(=O)c1C([2H])(C([2H])([2H])[2H])C([2H])([2H])[2H]"
A) 81.60

(a) CC(C)c1cc(Oc2c(Cl)cc(-n3nc(C#N)c(=O)[nH]c3=O)cc2Cl)n[nH]c1=O [MGL-3196, reference compound]
(b) CN(C)CCC=C1c2ccccc2CCc2ccccc21 [Amitriptyline, reference compound]
Q) Higher Percentage of residual substances after 25 minutes: a or b ? Please reply using the label of the selected record.
A) a
(a: 72.96%, b: 18.81%)

---

- PROTOCOL: Pharmacokinetics in mice
- Type: in vivo
- CONDITION_NOTES: ICR, mouse, plasma, 5 mg/kg, po. 5 mpk, read-out: Exposure dose AUC
RECORDED_ENDPOINT: AUC (ng·h/mL)

Q) Consider the compound shown here: "[2H]c1c(Oc2c(Cl)cc(-n3nc(C#N)c(=O)[nH]c3=O)cc2Cl)n[nH]c(=O)c1C(C([2H])([2H])[2H])C([2H])([2H])[2H]" What is its recorded AUC?
A) 44100

(P) [2H]c1c(Oc2c(Cl)cc(-n3nc(C#N)c(=O)[nH]c3=O)cc2Cl)n[nH]c(=O)c1C([2H])(C([2H])([2H])[2H])C([2H])([2H])[2H]
(Q) [2H]C([2H])([2H])C([2H])(c1cc(Oc2c(Cl)cc(-n3nc(C#N)c(=O)[nH]c3=O)cc2Cl)n[nH]c1=O)C([2H])([2H])[2H]
Q) Higher AUC: P or Q ? Please reply using the label of the selected record.
A) P

---

- PROTOCOL: Metabolic stability in mouse liver microsomes
- Type: in vitro ADME
- CONDITION_NOTES: 1 μM test drug, 0.5 mg/ml protein, 1 mM NADPH, read-out: Half-life t1/2
RECORDED_ENDPOINT: half-life at 1 μM (min)

Q) Consider the compound shown here: "[2H]c1c(Oc2c(Cl)cc(-n3nc(C#N)c(=O)[nH]c3=O)cc2Cl)n[nH]c(=O)c1C(C([2H])([2H])[2H])C([2H])([2H])[2H]" What is its recorded half-life at 1 μM?
A) 458

Q) Consider the compound shown here: "[2H]C([2H])([2H])C(c1cc(Oc2c(Cl)cc(-n3nc(C#N)c(=O)[nH]c3=O)cc2Cl)n[nH]c1=O)C([2H])([2H])[2H]" What is its recorded half-life at 1 μM?
A) 527

(1) CC(C)c1cc(Oc2c(Cl)cc(-n3nc(C#N)c(=O)[nH]c3=O)cc2Cl)n[nH]c1=O [MGL-3196, reference compound]
(2) [2H]c1c(Oc2c(Cl)cc(-n3nc(C#N)c(=O)[nH]c3=O)cc2Cl)n[nH]c(=O)c1C([2H])(C([2H])([2H])[2H])C([2H])([2H])[2H]
Q) Higher half-life at 1 μM: 1 or 2 ? Please reply using the label of the selected record.
A) 2
(2: 882 min, 1: 486 min)

---

- TARGET_OR_TEST_SYSTEM: CYP2C8 (Homo sapiens)
- Sequence (P10632 1-490): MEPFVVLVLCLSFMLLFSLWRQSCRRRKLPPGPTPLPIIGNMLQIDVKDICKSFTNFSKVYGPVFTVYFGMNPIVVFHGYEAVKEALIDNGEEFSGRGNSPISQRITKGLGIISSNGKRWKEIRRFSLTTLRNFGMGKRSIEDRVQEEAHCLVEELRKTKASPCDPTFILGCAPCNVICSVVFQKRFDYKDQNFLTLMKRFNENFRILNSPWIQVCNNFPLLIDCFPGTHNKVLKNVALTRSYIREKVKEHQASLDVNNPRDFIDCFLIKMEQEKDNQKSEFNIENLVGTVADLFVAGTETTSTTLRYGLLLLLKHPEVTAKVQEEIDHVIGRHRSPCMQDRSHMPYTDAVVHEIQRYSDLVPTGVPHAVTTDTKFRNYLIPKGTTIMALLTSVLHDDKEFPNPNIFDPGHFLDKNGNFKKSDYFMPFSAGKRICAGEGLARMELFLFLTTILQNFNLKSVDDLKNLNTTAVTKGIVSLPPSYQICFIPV
- PROTOCOL: Metabolic stability in recombinant human CYP2C8 metabolic enzyme
- Type: in vitro ADME
- CONDITION_NOTES: CYP subtype 2C8, test concentration 2 (M)
- Experimental: 1) Na2HPO4, KH2PO4, and pure water were used to prepare phosphate buffer (100 mM, pH 7.4); 2) Test compound and reference compound were dissolved in acetonitrile to obtain a working solution (200 M); 3) NADPH solution (10 mM) was prepared with NADPH and phosphate buffer (100 mM, pH 7.4); 4) The stock solution of recombinant CYP2C8 enzyme was diluted to […] with phosphate buffer (100 mM, pH 7.4); […]
RECORDED_ENDPOINT: Clearance rate CLint (μL/min/pmol CYP450)

Q) Consider the molecule shown here: "[2H]C([2H])([2H])C(c1cc(Oc2c(Cl)cc(-n3nc(C#N)c(=O)[nH]c3=O)cc2Cl)n[nH]c1=O)C([2H])([2H])[2H]" What is its recorded Clearance rate CLint?
A) 0.10

(I) [2H]C([2H])([2H])C([2H])(c1cc(Oc2c(Cl)cc(-n3nc(C#N)c(=O)[nH]c3=O)cc2Cl)n[nH]c1=O)C([2H])([2H])[2H]
(II) CN(C)CCC=C1c2ccccc2CCc2ccccc21 [Amitriptyline, reference compound]
Q) Higher Clearance rate CLint: I or II ? Please reply using the label of the selected record.
A) II

---

- TARGET_OR_TEST_SYSTEM: CYP2C8 (Homo sapiens, UniProt P10632)
- PROTOCOL: Metabolic stability in recombinant human CYP2C8 metabolic enzyme
- Assay type: in vitro ADME
- CONDITION_NOTES: CYP subtype 2C8, test concentration 2 (M)
RECORDED_ENDPOINT: Clearance rate CLint (μL/min/pmol CYP450)

Q) Consider the compound shown here: "[2H]c1c(Oc2c(Cl)cc(-n3nc(C#N)c(=O)[nH]c3=O)cc2Cl)n[nH]c(=O)c1C(C([2H])([2H])[2H])C([2H])([2H])[2H]" What is its recorded Clearance rate CLint?
A) 0.06

(P) [2H]c1c(Oc2c(Cl)cc(-n3nc(C#N)c(=O)[nH]c3=O)cc2Cl)n[nH]c(=O)c1C([2H])(C([2H])([2H])[2H])C([2H])([2H])[2H]
(Q) CC(C)c1cc(Oc2c(Cl)cc(-n3nc(C#N)c(=O)[nH]c3=O)cc2Cl)n[nH]c1=O [MGL-3196, reference compound]
Q) Higher Clearance rate CLint: P or Q ? Please reply using the label of the selected record.
A) Q
